test system: EKVX; test: NCI tumour cell line growth inhibition, 48 h
Activity calls are given as the source filed them. Cut-off read from the data, not from the text of the source: active = GI50 up to about 1.1 µM and inactive = higher.
Select the matching outcome among active, inactive

Check out these entries, answers already filled in.
>>> df
                                   compound       cat
0  Cc1ccc(C(C)(C)C[P+](C)(c2ccccc2)c2ccccc2)cc1  inactive
1  CC(=O)Oc1c(C)cc(-c2cc(C)c(OC(C)=O)c(C)c2)cc1C  inactive

Called result for O=C1C(=c2cc3c(c4ccccc24)=NC24CCCCC2C(c2ccccc2)C=C(c2ccccc2)N34)C(=O)c2ccccc21 (configuration not stated)
inactive

Moving on to the next compound: O=c1c2cc(Cl)cc(Cl)c2oc2nc3n(c(=O)c12)CCCS3
inactive

Entry to check: O=C(O)c1ccccc1CC(Cc1ccc2c(c1)CCC2)C(=O)O (configuration not stated)
inactive

Next compound: Cc1[nH]c2ccccc2c1-c1cc(-c2cc(-c3c(C)[nH]c4ccccc34)on2)no1
inactive

====

tested on: K562; test: NCI tumour cell line growth inhibition, 48 h
Calls of active or inactive are those of the source. Cut-off read from the data, not from the text of the source: active = GI50 up to about 1.1 µM and inactive = higher.
In this exercise, the only acceptable responses are 1 (yes) (active), 0 (no) (inactive)

Take a look at these entries with their results.
                                   compound  target_desc      cat
0  CCC(C(=O)C(=O)C(CC)P1(=O)OC(C)(C)CN1C(C)(C)C)P1(=O)OC(C)(C)CN1C(C)(C)C (stereo not given)         K562   0 (no)
1  O=c1c(C(c2ccc(Cl)cc2)c2c(O)c3ccccc3n(-c3ccccc3)c2=O)c(O)c2ccccc2n1-c1ccccc1         K562   0 (no)
2  O=C(OCc1c(-c2ccccc2)nn(-c2ccccc2)c1COC(=O)Oc1ccccc1)Oc1ccccc1         K562   0 (no)
3                 O=c1c2c(nc3[nH]ccn13)CCC2         K562   0 (no)
4  O=C(O)C12C3C4(C(=O)O)C1C1(C(=O)O)C2C3(C(=O)O)C41 (stereo not given)         K562  1 (yes)
5  CC(C)NC(=O)OCc1c(COC(=O)NC(C)C)c(-c2cc[n+](COC(=O)C3CC3)cc2)n2c1CCC2         K562   0 (no)
6                   CN(C)/C=N/c1ccc2nonc2c1         K562   0 (no)
7  Cc1cn(CC2=NC3CCCCC3N2)c(=O)[nH]c1=O (stereo not given)         K562   0 (no)

Tell me the assay call for CCOC(=O)/C=C/C1(CCOC(C)=O)CCCCC1 please.
0 (no)

====

tested on: SK-MEL-28; assay: NCI tumour cell line growth inhibition, 48 h
Calls of active or inactive are those of the source. Cut-off read from the data, not from the text of the source: active = GI50 up to about 1.1 µM and inactive = higher.
Item-by-item account of GI50

Illustrative cases are given below, each with its answer.
>>> print(df.to_string())
                                   compound             measured
0  Cc1cccc2c1Oc1ccccc1C2NC(=O)c1ccc([N+](=O)[O-])cc1 (configuration not stated)  > 100 µM (inactive)
1  CC1=NN(c2nc(N)nc(C(C#N)C(=O)c3cc4c(cc3Cl)Sc3nccn3S4(=O)=O)n2)C(C)(C)C1 (configuration not stated)     20 µM (inactive)

Data request, read-out GI50, for C#CC1(O)CCC2C3CCc4cc(Oc5nc(F)nc(-c6c7ccccc7c7n6CCS7)n5)ccc4C3CC[C@@]21C (some centres not stated)
21.1 µM (inactive)

Then this compound: CCOC(NC(=O)CC)(C(F)(F)F)C(F)(F)F
> 100 µM (inactive)

Next: COC1OC(CO)C(O)C(NC(=O)N(C)N=O)C1O (configuration not stated)
> 100 µM (inactive)

Another: O=C1C(=c2cc3c(c4ccccc24)=NC24CCCCC2C(c2ccccc2)C=C(c2ccccc2)N34)C(=O)c2ccccc21 (configuration not stated)
47.2 µM (inactive)

Same question for O=C(NN=C1CCCCC1)NN=C1CCCCC1 please.
> 100 µM (inactive)

Would you kindly repeat that for Cc1nc2ccccn2c1/N=N/c1ccc(C(=O)NN)cc1 ?
80.9 µM (inactive)

What would you report for N=C(N)/N=C(\N)Nc1cnccn1 ?
> 100 µM (inactive)

Can you check CCCCCOC(=O)c1cc2cc(CCl)ccc2oc1=O next?
6.49 µM (inactive)

Try the compound O=C(Nc1ccccc1C(=O)O)C(=O)C(C(=O)c1ccccc1-c1ccccc1)C1OC(=O)c2ccccc21 (configuration not stated)
19.4 µM (inactive)

Also check O=C(C(=O)n1ccc2ccccc21)c1c[nH]c2ccccc12
> 10 µM (inactive)
